assay: chemical genetic growth profiling, strain panel (AID 1159580);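 further: tested at 20 µM; growth read once vehicle control cultures reached saturation at 30 °C; 1 = growth at the plate median or of vehicle wells; lower values mean less growth of the strain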; settings: S. cerevisiae deletion strains, growth OD, locus YKL068W, hits give low values
About 2,000 (36%) of roughly 5,500 compounds were called active. Roughly 18% stayed inconclusive and do not appear here. Some of the results follow.
MEASURE NAME: normalized growth
Give only the figure.

QUERY: State its normalized growth: Cc1oncc1C(=O)Nc1ccc(C(F)(F)F)cc1
RESULT: 0.998

QUERY: State its normalized growth: COC(=O)[C@@H]1OC(=O)C2OC23[C@@]1(C)CCC1[C@]2(C)C(C[C@@H](O)[C@]13C)C(C)(C)[C@H](OC(C)=O)C[C@@H]2OC(C)=O (stereo partly specified)
RESULT: 1

---

assay: chemical genetic growth profiling, strain panel (AID 1159580); details: S. cerevisiae deletion strains, growth OD, locus YJL157C, strain FAR1, hits give low values
In all, about 5,500 compounds went through this assay and about 2,000 (36%) were called active. Not shown: some 18% with an inconclusive outcome. The list shows a part of the results.
In this section we review reported normalized growth values for a set of compounds.

Some solved cases for reference:
INSERT INTO assay_data (compound, measure_name, value_reported) VALUES
  ('COc1ccc(-c2csc(-c3cccnc3)n2)cc1', 'normalized growth', '0.914 (inactive)'),
  ('N#Cc1ccc(Oc2sccc2[N+](=O)[O-])cc1', 'normalized growth', '0.883 (inactive)'),
  ('N/C(=N/O)c1ccc(Oc2ccc(C3SCCS3)cc2)c([N+](=O)[O-])c1', 'normalized growth', '1.01 (inactive)'),
  ('CC(C)(C)C1=C(C#N)C(c2c(Cl)cccc2Cl)C(C#N)=C(N)O1 (stereo not given)', 'normalized growth', '1.01 (inactive)'),
  ('Cc1noc(C)c1S(=O)(=O)Nc1csc(C(F)(F)F)c1-c1ccccc1', 'normalized growth', '1.01 (inactive)'),
  ('O=C(Nc1cc(Cl)ccc1O)c1ccccc1CSc1ccc(Cl)cc1', 'normalized growth', '0.783 (inactive)'),
  ('CC1C(c2ccccc2)N(C)C(c2ccccc2)CC1(O)c1ccc(F)cc1 (stereo not given)', 'normalized growth', '0.972 (inactive)'),
  ('Cn1nccc1-c1cc(Cl)cc(Cl)c1O', 'normalized growth', '0.749 (inactive)');

Turning to the following compound.
QUERY: State its normalized growth: Cc1cccc(N=NC(C(=O)C(F)(F)F)=C(O)c2cccs2)c1
RESULT: 0.989 (inactive)

---

In this section we review reported normalized growth values for a set of compounds.
assay: chemical genetic growth profiling, strain panel (AID 1159580); conditions: S. cerevisiae deletion strains, growth OD, locus YNR052C, strain pop2, hits give low values
Hit rate of the full screen: of about 5,500 compounds, about 2,000 (36%) were called active. Roughly 18% stayed inconclusive and do not appear here. This is one part of the list.
Give only the figure.

INSERT INTO assay_data (compound, value_reported) VALUES
  ('CCCNC(=O)NS(=O)(=O)c1ccc(Cl)cc1', 1.01);

QUERY: State its normalized growth: NCC[C@@H](O)C(=O)N[C@@H]1C[C@H](N)[C@@H](O[C@H]2O[C@H](CN)[C@@H](O)[C@H](O)[C@H]2O)[C@H](O)[C@H]1O[C@H]1O[C@H](CO)[C@@H](O)[C@H](N)C1O (stereo partly drawn)
RESULT: 1.02

QUERY: State its normalized growth: O=C(O)COc1ccc(Cl)cc1Cl
RESULT: 1.03

QUERY: State its normalized growth: COC(=O)[C@@H]1OC(=O)C2OC23[C@@]1(C)CCC1[C@]2(C)C(C[C@@H](O)[C@]13C)C(C)(C)[C@H](OC(C)=O)C[C@@H]2OC(C)=O (stereo partly drawn)
RESULT: 0.996

---

test: chemical genetic growth profiling, strain panel (AID 1159580); settings: S. cerevisiae deletion strains, growth OD, strain TSCII, hits give low values
The whole screen tested about 5,500 compounds, of which about 2,000 (36%) were called active. Not shown: some 18% with an inconclusive outcome. The list shows a part of the results.
In this section we review reported normalized growth values for a set of molecules.

Some solved cases for reference:
INSERT INTO results (molecule, measure_name, value_reported) VALUES
  ('CC1C(c2ccccc2)N(C)C(c2ccccc2)CC1(O)c1ccc(F)cc1 (stereo not given)', 'normalized growth', '0.987 (inactive)'),
  ('Brc1ccc(-c2csc(-c3cccnc3)n2)cc1', 'normalized growth', '0.86 (active)'),
  ('O=[N+]([O-])c1ccsc1Oc1cccc(C(F)(F)F)c1', 'normalized growth', '0.932 (inactive)'),
  ('CC1=CC(=O)N(c2ccc(F)c(Cl)c2)C1=O', 'normalized growth', '0.966 (inactive)'),
  ('N#Cc1ccc(Oc2sccc2[N+](=O)[O-])cc1', 'normalized growth', '0.921 (inactive)');

QUERY: State its normalized growth: O=S(=O)(Nc1csc(C(F)(F)F)c1-c1ccccc1)c1cc(Br)c(Br)s1
RESULT: 0.963 (inactive)

QUERY: State its normalized growth: Cc1cccc(N=NC(C(=O)C(F)(F)F)=C(O)c2cccs2)c1
RESULT: 0.988 (inactive)

QUERY: State its normalized growth: O=S(=O)(NCc1cc(Cl)cc(Cl)c1)c1cc(C(F)(F)F)cc(C(F)(F)F)c1
RESULT: 0.999 (inactive)

---

assay: chemical genetic growth profiling, strain panel (AID 1159580);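 further: tested at 20 µM; growth read once vehicle control cultures reached saturation at 30 °C; 1 = growth at the plate median or of vehicle wells; lower values mean less growth of the strain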; conditions: S. cerevisiae deletion strains, growth OD, locus YOL006C, strain TOP1
Screen size: about 5,500 compounds; about 2,000 (36%) were called active. Roughly 18% stayed inconclusive and do not appear here. Cut-off read from the data, not from the text of the source: active = normalized growth mostly below about 0.91 (no sharp cut-off); inconclusive = no clear call, values can overlap the other calls; inactive = mostly above about 0.92. This is one part of the list.
Reply using exactly one outcome from class 1 (active), class 0 (inactive)

INSERT INTO assay_data (compound, classification) VALUES
  ('COc1ccc(-c2cc(=O)c3c(OC)cc(OC)cc3o2)cc1', 'class 0');

QUERY: // param item: COc1cc(OC)c2c(=O)cc(-c3ccccc3)oc2c1 ; yields the recorded call
RESULT: class 1

QUERY: // param item: NC1(C(=O)O)CCC1 ; yields the recorded call
RESULT: class 0

---

experiment: chemical genetic growth profiling, strain panel (AID 1159580);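 further: tested at 20 µM; growth read once vehicle control cultures reached saturation at 30 °C; 1 = growth at the plate median or of vehicle wells; lower values mean less growth of the strain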; conditions: S. cerevisiae deletion strains, growth OD, locus YHR129C, strain ARP1, hits give low values
The whole screen tested about 5,500 compounds, of which about 2,000 (36%) were called active. Inconclusive results (about 18%) are left out. The list shows a part of the results.
MEASURE NAME: normalized growth
Give only the figure.

INSERT INTO results (compound, value_reported) VALUES
  ('C[C@]12CCC3c4ccc(OC(=O)CCC(=O)O)cc4CCC3C1CCC2=O (stereo not given in full)', 0.996),
  ('O=C(O)C1CCCNC1 (stereo not given)', 1.01),
  ('CCN1C[C@@]2(COC)C3[C@@H](OC)[C@H]4[C@@H]1[C@]3(C(OC)C[C@H]2O)C1C[C@@]2(O)[C@H](OC(=O)c3ccccc3)C1[C@]4(OC(C)=O)[C@@H](O)[C@@H]2OC (stereo not given in full)', 1.02),
  ('CC(=O)Oc1ccc2c(c1)CCC1C2CC[C@]2(C)C(=O)CCC12 (stereo not given in full)', 1.01),
  ('Cc1cc(/C=C/c2ccc3cc(N(C)C)ccc3[n+]2C)c(C)n1-c1ccccc1', 0.904),
  ('COc1ccc2c(c1)OCC(Cc1ccc(OC)c(O)c1)C2=O (stereo not given)', 0.966),
  ('O=C(O)COc1ccc(Cl)cc1Cl', 1),
  ('NC(N)=NCCCCN=C(N)N', 0.994);

QUERY: State its normalized growth: Cc1nnc(NS(=O)(=O)c2ccc(N)cc2)s1
RESULT: 1

QUERY: State its normalized growth: C1N2CN3CN1CN(C2)C3
RESULT: 0.978

QUERY: State its normalized growth: C[C@]12CCC3c4ccc(OC(=O)c5ccccc5)cc4CCC3C1CCC2=O (stereo not given in full)
RESULT: 0.997

QUERY: State its normalized growth: CN1CCC[C@@H]1CCO[C@](C)(c1ccccc1)c1ccc(Cl)cc1
RESULT: 1.01

---

assay: chemical genetic growth profiling, strain panel (AID 1159580);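 further: tested at 20 µM; growth read once vehicle control cultures reached saturation at 30 °C; 1 = growth at the plate median or of vehicle wells; lower values mean less growth of the strain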; details: S. cerevisiae deletion strains, growth OD, locus YKR001C, strain vps1
Screen size: about 5,500 compounds; about 2,000 (36%) were called active. Roughly 18% stayed inconclusive and do not appear here. Cut-off read from the data, not from the text of the source: active = normalized growth mostly below about 0.91 (no sharp cut-off); inconclusive = no clear call, values can overlap the other calls; inactive = mostly above about 0.92. The list shows a part of the results.
Reply using exactly one outcome from true for active, false for inactive

// below: answered compounds
INSERT INTO results (compound, classification) VALUES
  ('CC1[C@H](C)OC(=O)CC(O)CC(O)CC(O)CCC(O)C(O)C[C@]2(O)CC(O)C(C(=O)O)C(CC(OC3O[C@H](C)[C@@H](O)[C@H](N)[C@@H]3O)/C=C/C=C/C=C/C=C/CC/C=C/C=C/[C@H](C)[C@H]1O)O2 (some centres undefined)', 'true'),
  ('Cc1ccc(C(=O)c2ccc(CC(=O)O)n2C)cc1', 'false'),
  ('CC1OC(O[C@H]2/C=C/C=C/C=C/C=C/C=C/C=C/C=C/[C@H](C)[C@@H](O)[C@@H](C)[C@H](C)OC(=O)CC(O)CC(O)CCC(O)C(O)CC(O)C[C@]3(O)C[C@H](O)C(C(=O)O)C(C2)O3)C(O)[C@H](N)C1O (some centres undefined)', 'false');

QUERY: // param item: Cc1cc(CC(=O)O)n(C)c1C(=O)c1ccc(Cl)cc1 ; yields the recorded call
RESULT: false
